Attribution: patent US20250177383A1

compounds and their reported IC50
Molecular target: IL-17A/A (Homo sapiens, UniProt Q16552)
Sequence (Q16552 24-155): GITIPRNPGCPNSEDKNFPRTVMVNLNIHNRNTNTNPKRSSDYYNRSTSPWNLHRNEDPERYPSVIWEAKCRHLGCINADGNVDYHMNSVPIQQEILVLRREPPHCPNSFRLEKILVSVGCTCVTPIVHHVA
Experiment: IL-17A/A HEK-Blue Cell Assay
Assay type: cell-based
Details: HEK-Blue IL-17 reporter cells, IL-17A/A stimulation, 20 hours, SEAP readout; read-out: IL17 AA HEK-5 pIC50 (converted)

{"columns": ["Compound", "IC50"],
 "data": [
  ["CCc1nonc1C(=O)N[C@H](C(=O)Nc1ccc([C@H](C)[C@@H](NC(=O)N(C)C2CC2)C(=O)N2CCN(C)CC2)cc1F)C(C1CC1)C1CC1", "< 10 nM"],
  ["CCOC(C)C(=O)N[C@@H](C(=O)N1CCN(C)[C@H](C)C1)[C@@H](C)c1ccc(NC(=O)[C@@H](NC(=O)C2(F)CC2)C(C2CC2)C2CC2)c(F)c1 (single isomer, unassigned) [Compound 322]", "< 10 nM"],
  ["CO[C@@H](C)C(=O)N[C@@H](C(=O)N1CCN(C)C[C@@H]1C)[C@@H](C)c1ccc(NC(=O)[C@@H](NC(=O)C2(F)CC2)C(C2CC2)C2CC2)c(F)c1", "10 to 100 nM"]
]}
